# SYSTEM UNDER TEST: NAD-dependent protein deacetylase sirtuin-1 (Homo sapiens, UniProt Q96EB6)
# Sequence (Q96EB6 whole entry): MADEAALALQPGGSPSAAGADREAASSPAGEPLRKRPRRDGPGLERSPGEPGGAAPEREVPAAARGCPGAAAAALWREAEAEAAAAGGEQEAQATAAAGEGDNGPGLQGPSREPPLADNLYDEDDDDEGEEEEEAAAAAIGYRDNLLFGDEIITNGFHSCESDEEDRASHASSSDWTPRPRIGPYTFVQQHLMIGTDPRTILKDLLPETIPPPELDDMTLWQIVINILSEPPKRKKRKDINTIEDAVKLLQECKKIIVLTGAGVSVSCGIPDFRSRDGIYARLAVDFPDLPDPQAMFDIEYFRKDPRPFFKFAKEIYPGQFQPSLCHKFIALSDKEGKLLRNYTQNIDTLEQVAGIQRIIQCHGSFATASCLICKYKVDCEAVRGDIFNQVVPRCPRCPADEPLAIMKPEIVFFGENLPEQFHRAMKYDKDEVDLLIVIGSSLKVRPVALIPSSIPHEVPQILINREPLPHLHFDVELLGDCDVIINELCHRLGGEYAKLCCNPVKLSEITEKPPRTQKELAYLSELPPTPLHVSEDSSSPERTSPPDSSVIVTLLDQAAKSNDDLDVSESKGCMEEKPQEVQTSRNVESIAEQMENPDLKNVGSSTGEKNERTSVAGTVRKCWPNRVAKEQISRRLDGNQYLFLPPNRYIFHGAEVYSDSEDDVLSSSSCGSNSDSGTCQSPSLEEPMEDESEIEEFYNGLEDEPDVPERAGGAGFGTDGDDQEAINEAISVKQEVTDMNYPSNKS
# PROCEDURE SUMMARY: Inhibition of recombinant GST-tagged human SIRT1 using 0.3 mM H2N-HK-[N(epsilon)-acetyl-lysine]-LM-COOH as substrate measured after 10 mins HPLC analysis in presence of 0.5 mM beta-NAD+
*1 amine or outer side, *2 acyl side, *3 side chain or, on linkers, in order; H or OH if unused. Where a SMILES comes first, the peptide text is derived from it. Bridges are numbered along the chain shown (N, C = ends). [ ]: non-standard residue; d: D form. Suberoyl(Gly)2 = O=C(CCCCCCC(=O)NCC(=O)[*:2])NCC(=O)[*:1]; Lys(Thioacetyl) = CC(=S)NCCCC[C@H](N)C(=O)O; Suberoyl = O=C(CCCCCCC(=O)[*:2])[*:1]; Adipoyl = O=C(CCCCC(=O)[*:2])[*:1]; Suc = O=C(CCC(=O)[*:2])[*:1]
Kindly supply the reported log10(IC50) values for the records listed here.
Reminder: these figures are log10 of reported IC50, in µM before transformation.

As a guide, the following entries are already answered.
MOLECULE | SYSTEM UNDER TEST | log10(IC50)
CSCC[C@H](NC(=O)[C@H](CC(C)C)NC(=O)[C@H](CCCCNC(C)=S)NC(=O)[C@H](CCCCN)NC(=O)[C@H](Cc1c[nH]cn1)NC(C)=O)C(N)=O (Ac-HK[Lys(Thioacetyl)]LM-NH2) | NAD-dependent protein deacetylase sirtuin-1 (Homo sapiens, UniProt Q96EB6) | -0.78
CSCC[C@H](NC(=O)[C@@H]1CCCCNC(=O)CNC(=O)CCC(=O)NCC(=O)NCCCC[C@H](NC(C)=O)C(=O)N[C@@H](CCCCN)C(=O)N[C@@H](CCCCNC(C)=S)C(=O)N1)C(N)=O | NAD-dependent protein deacetylase sirtuin-1 (Homo sapiens, UniProt Q96EB6) | -1.25
CSCC[C@H](NC(=O)[C@@H]1CCCCNC(=O)CNC(=O)CCCCCCC(=O)NCC(=O)NCCCC[C@H](NC(C)=O)C(=O)N[C@@H](CCCCN)C(=O)N[C@@H](CCCCNC(C)=S)C(=O)N1)C(N)=O (Ac-KK[Lys(Thioacetyl)]KM-NH2; linker 1-4 via Suberoyl(Gly)2) | NAD-dependent protein deacetylase sirtuin-1 (Homo sapiens, UniProt Q96EB6) | -2.64
CSCC[C@H](NC(=O)[C@@H]1CCCCNC(=O)CNC(=O)CCCCC(=O)NCC(=O)NCCCC[C@H](NC(C)=O)C(=O)N[C@@H](CCCCN)C(=O)N[C@@H](CCCCNC(C)=S)C(=O)N1)C(N)=O | NAD-dependent protein deacetylase sirtuin-1 (Homo sapiens, UniProt Q96EB6) | -1.41
CSCC[C@H](NC(=O)[C@@H]1CCCCNC(=O)CCCCCCC(=O)NCCCC[C@H](NC(C)=O)C(=O)N[C@@H](CCCCN)C(=O)N[C@@H](CCCCNC(C)=S)C(=O)N1)C(N)=O (Ac-KK[Lys(Thioacetyl)]KM-NH2; linker 1-4 via Suberoyl) | NAD-dependent protein deacetylase sirtuin-1 (Homo sapiens, UniProt Q96EB6) | -1.43
CSCC[C@H](NC(=O)[C@@H]1CCCCNC(=O)CCC(=O)NCCCC[C@H](NC(C)=O)C(=O)N[C@@H](CCCCN)C(=O)N[C@@H](CCCCNC(C)=S)C(=O)N1)C(N)=O (Ac-KK[Lys(Thioacetyl)]KM-NH2; linker 1-4 via Suc) | NAD-dependent protein deacetylase sirtuin-1 (Homo sapiens, UniProt Q96EB6) | -1.12

// next item, log10(IC50) requested
input: What log10(IC50) value was documented for this molecule, CSCC[C@H](NC(=O)[C@@H]1CCCCNC(=O)CCCCC(=O)NCCCC[C@H](NC(C)=O)C(=O)N[C@@H](CCCCN)C(=O)N[C@@H](CCCCNC(C)=S)C(=O)N1)C(N)=O (Ac-KK[Lys(Thioacetyl)]KM-NH2; linker 1-4 via Adipoyl) ?
output: -1.20

Every entry's value here was drawn from ChEMBL document CHEMBL3779768.
